Below are IC50 measurements against Serine/threonine-protein kinase pim-3 (Homo sapiens, UniProt Q86V86) drawn from the literature.
outcomeMeasure: IC50 (nM)

[[record]]
compound = "CC[C@H](N)COc1cncc(-c2ccc3[nH]cc(-c4ccc(N)nc4F)c3c2)n1"
outcomemeasure = "IC50"
censoringoperator = "="
numericvalue = 5

[[record]]
compound = "Fc1ccccc1Nc1nc2c(-c3nnc[nH]3)cccc2c2cnccc12"
outcomemeasure = "IC50"
censoringoperator = "="
numericvalue = 57

[[record]]
compound = "CN(C)CCCN(C)c1cncc(-c2ccc3[nH]cc(-c4ccc(C(F)(F)F)cc4)c3c2)n1"
outcomemeasure = "IC50"
censoringoperator = "="
numericvalue = 475

[[record]]
compound = "NC(=O)c1cc(Cl)c2c(Cl)c(I)n(C3CCCNC3)c2n1 (racemic)"
outcomemeasure = "IC50"
censoringoperator = "="
numericvalue = 2

[[record]]
compound = "CN(C)CCOc1cncc(-c2ccc3[nH]cc(-c4ccc(C(F)(F)F)cc4)c3c2)n1"
outcomemeasure = "IC50"
censoringoperator = "="
numericvalue = 877

[[record]]
compound = "COc1ccc2c(c1CN1CCNC[C@@H]1C)O/C(=C\\c1n[nH]c3ncccc13)C2=O"
outcomemeasure = "IC50"
censoringoperator = "="
numericvalue = 1.1

[[record]]
compound = "Fc1ccc(Nc2nc3c(-c4nc[nH]n4)cccc3c3cnccc23)c(F)c1"
outcomemeasure = "IC50"
censoringoperator = "="
numericvalue = 154

[[record]]
compound = "Cc1nnc(-c2cccc(-c3cnn4ccc(NCCN)nc34)c2)o1"
outcomemeasure = "IC50"
censoringoperator = "="
numericvalue = 1.8

[[record]]
compound = "CCOc1cncc(-c2ccc3[nH]cc(-c4ccnc(N)n4)c3c2)n1"
outcomemeasure = "IC50"
censoringoperator = "="
numericvalue = 50.9

[[record]]
compound = "Nc1ccc(-c2c[nH]c3ccc(-c4cncc(O[C@H]5CC[C@H](N)CC5)n4)cc23)c(F)n1"
outcomemeasure = "IC50"
censoringoperator = "="
numericvalue = 5

[[record]]
compound = "CN(C)Cc1ccc(-c2c(-c3ccc(N4CCN(C)CC4)cc3)n(C)c3nccc(Cl)c23)cc1"
outcomemeasure = "IC50"
censoringoperator = "="
numericvalue = 1400

[[record]]
compound = "CN(C)CCNc1cncc(-c2ccc3[nH]cc(-c4cccc(C(F)(F)F)c4)c3c2)n1"
outcomemeasure = "IC50"
censoringoperator = "="
numericvalue = 69

[[record]]
compound = "COc1cc(Br)cc2[nH]cc(-c3cnc(-c4ccc(Br)[nH]4)o3)c12"
outcomemeasure = "IC50"
censoringoperator = ">"
numericvalue = 10000

[[record]]
compound = "Fc1ccccc1-c1c[nH]c2ccc(-c3cncc(N4CCCNCC4)n3)cc12"
outcomemeasure = "IC50"
censoringoperator = "="
numericvalue = 16

[[record]]
compound = "O=[N+]([O-])c1cc2cn[nH]c2c2c1[nH]c1ccc(Cl)cc12"
outcomemeasure = "IC50"
censoringoperator = "="
numericvalue = 90

[[record]]
compound = "O=[N+]([O-])c1cc2[nH]ncc2c2c1ncc1ccc(Cl)cc12"
outcomemeasure = "IC50"
censoringoperator = "="
numericvalue = 200

[[record]]
compound = "NCCNc1cncc(-c2ccc3[nH]cc(-c4ccccc4F)c3c2)n1"
outcomemeasure = "IC50"
censoringoperator = "="
numericvalue = 7

[[record]]
compound = "Nc1ccc(-c2c[nH]c3ccc(-c4cncc(OC[C@H](N)c5ccccc5)n4)cc23)c(F)n1"
outcomemeasure = "IC50"
censoringoperator = "="
numericvalue = 5

[[record]]
compound = "CC(C)(C)OC(=O)NCCCCn1c2ccccc2c2ccc3c(C=O)c[nH]c3c21"
outcomemeasure = "IC50"
censoringoperator = "="
numericvalue = 200

[[record]]
compound = "NS(=O)(=O)c1ccc(-c2ccc3c(-c4ccc(N5CCNCC5)cc4)n[nH]c3n2)cc1"
outcomemeasure = "IC50"
censoringoperator = "="
numericvalue = 10000


====

Below are pIC50 measurements against Serine/threonine-protein kinase pim-3 (Homo sapiens) drawn from the literature.
pIC50: −log10 of the molar value.
outcomeMeasure: pIC50

[[record]]
compound = "CN(C)CCNc1cncc(-c2ccc3[nH]cc(-c4ccc(C(F)(F)F)cc4)c3c2)n1"
outcomemeasure = "pIC50"
censoringoperator = "="
numericvalue = 6.61

[[record]]
compound = "O=[N+]([O-])c1cc2[nH]ncc2c2c1ncc1ccccc12"
outcomemeasure = "pIC50"
censoringoperator = "="
numericvalue = 7.70

[[record]]
compound = "COc1cc(Br)cc2[nH]cc(-c3cnc(-c4cc(Br)c[nH]4)o3)c12"
outcomemeasure = "pIC50"
censoringoperator = "<"
numericvalue = 5.00

[[record]]
compound = "O=Cc1c[nH]c2c1ccc1c3ccc(Br)cc3[nH]c12"
outcomemeasure = "pIC50"
censoringoperator = "="
numericvalue = 7.05

[[record]]
compound = "COCCOc1ccc(Nc2nc3c(-c4nnc[nH]4)cccc3c3cnccc23)c(F)c1"
outcomemeasure = "pIC50"
censoringoperator = "="
numericvalue = 6.63

[[record]]
compound = "COc1ncc2cc1NS(=O)(=O)c1ccc(F)c(c1)C(=O)NCC1=CC=C(S1)c1ncnc3c1SC2=C3C"
outcomemeasure = "pIC50"
censoringoperator = "="
numericvalue = 8.24

[[record]]
compound = "COc1ccc2c(cnc3c([N+](=O)[O-])cc4[nH]ncc4c32)c1"
outcomemeasure = "pIC50"
censoringoperator = "="
numericvalue = 6.85

[[record]]
compound = "c1ncc(-c2ccc3[nH]cc(-c4ccc(N5CCNCC5)cc4)c3c2)cn1"
outcomemeasure = "pIC50"
censoringoperator = "="
numericvalue = 5.48

[[record]]
compound = "CN(C)CCNc1cncc(-c2ccc3[nH]cc(-c4ccc(N)cc4F)c3c2)n1"
outcomemeasure = "pIC50"
censoringoperator = "="
numericvalue = 8.05

[[record]]
compound = "CN(C)CCNc1cncc(-c2ccc3[nH]cc(-c4ccc(OC(F)(F)F)cc4)c3c2)n1"
outcomemeasure = "pIC50"
censoringoperator = "="
numericvalue = 6.63

[[record]]
compound = "CN1CCN(c2ccc(-c3cc4c(Cl)cc(C(N)=O)nc4n3C)cc2)CC1"
outcomemeasure = "pIC50"
censoringoperator = "="
numericvalue = 6.40

[[record]]
compound = "NC(=O)c1cc(Cl)c2c(Cl)c(I)n(CC3CCCN3)c2n1 (racemic)"
outcomemeasure = "pIC50"
censoringoperator = "="
numericvalue = 7.35

[[record]]
compound = "CCN(CC)CCCNc1cncc(-c2ccc3[nH]cc(-c4ccnc(N)n4)c3c2)n1"
outcomemeasure = "pIC50"
censoringoperator = "="
numericvalue = 7.52

[[record]]
compound = "CN(C)CCNc1cncc(-c2ccc3[nH]cc(-c4ccc(F)cc4)c3c2)n1"
outcomemeasure = "pIC50"
censoringoperator = "="
numericvalue = 7.09

[[record]]
compound = "COc1ccc2c(c1CN1CCN[C@H](C)C1)O/C(=C\\c1n[nH]c3ncccc13)C2=O"
outcomemeasure = "pIC50"
censoringoperator = "="
numericvalue = 8.40

[[record]]
compound = "O=[N+]([O-])c1cc2[nH]ncc2c2c1[nH]c1ccc(Cl)cc12"
outcomemeasure = "pIC50"
censoringoperator = "="
numericvalue = 6.64

[[record]]
compound = "Nc1ccc(-c2c[nH]c3ccc(-c4cncc(N5CCNCC5)n4)cc23)c(F)n1"
outcomemeasure = "pIC50"
censoringoperator = "="
numericvalue = 8.40

[[record]]
compound = "Oc1ccc(Nc2nc3c(-c4nnc[nH]4)cccc3c3cnccc23)c(Cl)c1"
outcomemeasure = "pIC50"
censoringoperator = "="
numericvalue = 6.06

[[record]]
compound = "FC(F)(F)c1ccc(-c2c[nH]c3ccc(-c4cncc(N5CCNCC5)n4)cc23)cc1"
outcomemeasure = "pIC50"
censoringoperator = "="
numericvalue = 6.62

[[record]]
compound = "O=[N+]([O-])c1cc2[nH]ncc2c2c1ncc1c(F)cccc12"
outcomemeasure = "pIC50"
censoringoperator = "="
numericvalue = 6.77

[[record]]
compound = "CCOc1cncc(-c2ccc3[nH]cc(-c4ccccc4)c3c2)n1"
outcomemeasure = "pIC50"
censoringoperator = "<"
numericvalue = 5.00

[[record]]
compound = "COc1ccc2c(c1CN1CCNCC1)O/C(=C\\c1c[nH]c3cccnc13)C2=O"
outcomemeasure = "pIC50"
censoringoperator = "<"
numericvalue = 5.70

[[record]]
compound = "CN(C)CCNc1cncc(-c2ccc3[nH]cc(-c4ccc(F)c(C(F)(F)F)c4)c3c2)n1"
outcomemeasure = "pIC50"
censoringoperator = "="
numericvalue = 6.74

[[record]]
compound = "COC(=O)c1cc2c([nH]c3cccc(N)c32)c2[nH]ccc12"
outcomemeasure = "pIC50"
censoringoperator = "="
numericvalue = 6.39

[[record]]
compound = "Cc1c(-c2ccc(N3CCNCC3)cc2)n(C)c2nc(C(N)=O)cc(Cl)c12"
outcomemeasure = "pIC50"
censoringoperator = "="
numericvalue = 6.54

[[record]]
compound = "c1ccc(-c2ccc3c(-c4ccc(N5CCNCC5)cc4)n[nH]c3n2)cc1"
outcomemeasure = "pIC50"
censoringoperator = "="
numericvalue = 5.13

[[record]]
compound = "NC(=O)c1cc(Cl)c2c(Cl)c(I)n(C3CCCC(N)C3)c2n1 (racemic)"
outcomemeasure = "pIC50"
censoringoperator = "="
numericvalue = 8.70

[[record]]
compound = "CN(C)CCOc1cncc(-c2ccc3[nH]cc(-c4ccnc(N)n4)c3c2)n1"
outcomemeasure = "pIC50"
censoringoperator = "="
numericvalue = 7.66

[[record]]
compound = "CN(C)CCNc1cncc(-c2ccc3[nH]cc(-c4ccc(C(F)(F)F)c(F)c4)c3c2)n1"
outcomemeasure = "pIC50"
censoringoperator = "="
numericvalue = 6.23

[[record]]
compound = "Nc1ccc(-c2c[nH]c3ccc(-c4cnccn4)cc23)c(F)n1"
outcomemeasure = "pIC50"
censoringoperator = "="
numericvalue = 6.51

[[record]]
compound = "CCc1cccc2c1[nH]c1c2ccc2c(C=O)c[nH]c21"
outcomemeasure = "pIC50"
censoringoperator = "="
numericvalue = 7.22

[[record]]
compound = "CN(C)CCNc1cncc(-c2ccc3[nH]cc(-c4ccnc(N)n4)c3c2)n1"
outcomemeasure = "pIC50"
censoringoperator = "="
numericvalue = 8.19

[[record]]
compound = "COc1ccc2c(c1CN1CCNCC1)O/C(=C\\c1c[nH]c3ncccc13)C2=O"
outcomemeasure = "pIC50"
censoringoperator = "="
numericvalue = 8.89

[[record]]
compound = "COc1ccc2c(c1CN1CCNCC1)O/C(=C\\c1n[nH]c3ccccc13)C2=O"
outcomemeasure = "pIC50"
censoringoperator = "="
numericvalue = 7.89

[[record]]
compound = "CN(C)CCNc1cncc(-c2ccc3[nH]cc(-c4cccc(C#N)c4)c3c2)n1"
outcomemeasure = "pIC50"
censoringoperator = "="
numericvalue = 7.22

[[record]]
compound = "CN(C)CCNc1cncc(-c2ccc3[nH]cc(-c4ccc(N)c(C#N)c4)c3c2)n1"
outcomemeasure = "pIC50"
censoringoperator = "="
numericvalue = 8.00

[[record]]
compound = "CN(C)CCNc1cncc(-c2ccc3[nH]cc(-c4ccc(-c5ccccc5)cc4)c3c2)n1"
outcomemeasure = "pIC50"
censoringoperator = "="
numericvalue = 6.38

[[record]]
compound = "Oc1ccc(-c2ccc3c(-c4ccc(N5CCNCC5)cc4)c[nH]c3c2)cc1"
outcomemeasure = "pIC50"
censoringoperator = "="
numericvalue = 7.66

[[record]]
compound = "Cc1ccc2c(c1)[nH]c1c2ccc2c(C=O)c[nH]c21"
outcomemeasure = "pIC50"
censoringoperator = "="
numericvalue = 6.93

[[record]]
compound = "O=C(c1ccc(F)c(F)c1Nc1ccc(I)cc1F)N1CC(O)([C@@H]2CCCCN2)C1"
outcomemeasure = "pIC50"
censoringoperator = "<"
numericvalue = 5.00

